Value source: PubChem BioAssay (Tox21)

- Target: Acetylcholinesterase (Homo sapiens) (UniProt P22303)
- Sequence (P22303 whole entry, looked up): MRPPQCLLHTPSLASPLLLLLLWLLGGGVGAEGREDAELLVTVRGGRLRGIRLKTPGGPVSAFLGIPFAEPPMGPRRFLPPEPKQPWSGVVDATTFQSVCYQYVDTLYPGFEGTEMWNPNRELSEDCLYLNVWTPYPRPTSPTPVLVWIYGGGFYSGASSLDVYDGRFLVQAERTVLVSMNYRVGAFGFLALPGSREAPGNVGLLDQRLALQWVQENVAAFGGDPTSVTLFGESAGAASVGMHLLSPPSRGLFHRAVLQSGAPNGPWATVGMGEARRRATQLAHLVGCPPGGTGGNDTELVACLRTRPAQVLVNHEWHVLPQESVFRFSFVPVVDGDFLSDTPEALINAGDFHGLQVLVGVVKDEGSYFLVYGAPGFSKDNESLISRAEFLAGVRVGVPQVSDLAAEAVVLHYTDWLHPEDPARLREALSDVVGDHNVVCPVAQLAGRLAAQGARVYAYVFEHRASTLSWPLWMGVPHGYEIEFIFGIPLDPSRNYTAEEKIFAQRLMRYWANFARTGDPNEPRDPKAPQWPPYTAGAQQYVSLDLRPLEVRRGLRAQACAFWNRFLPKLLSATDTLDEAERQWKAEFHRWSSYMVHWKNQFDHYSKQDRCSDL
- Measurement Description: Acetylcholinesterase (AChE) small molecule antagonists: enzyme-based qHTS assay (AID 1347397); note: nearly all actives have a fitted effect of over 55% in size
- Assay Context: AChE enzyme activity inhibition; series mostly up to 115 µM
Active and inactive are the calls of the source. Calls come from the whole dose curve.
Outcome codes: YES (active), NO (inactive)

Compound	Target	Assigned Class
O=[N+]([O-])c1ccc(CBr)cc1	Acetylcholinesterase (Homo sapiens) (UniProt P22303)	NO
N#CC(Cl)(Cl)Cl	Acetylcholinesterase (Homo sapiens) (UniProt P22303)	NO
COc1cc2c(cc1OC)[C@@]13CCN4CC5=CCO[C@H]6CC(=O)N2[C@H]1[C@H]6[C@H]5C[C@H]43	Acetylcholinesterase (Homo sapiens) (UniProt P22303)	NO
O=[N+]([O-])c1cccc(O)c1	Acetylcholinesterase (Homo sapiens) (UniProt P22303)	NO
Cc1coc2c1CCC(C)C2 (configuration not stated)	Acetylcholinesterase (Homo sapiens) (UniProt P22303)	NO
CCN(CC)CCOC(=O)C(C)(c1ccccc1)c1ccccc1	Acetylcholinesterase (Homo sapiens) (UniProt P22303)	NO
CC(C)(C)C(=O)C(Oc1ccc(Cl)cc1)n1cncn1 (configuration not stated)	Acetylcholinesterase (Homo sapiens) (UniProt P22303)	NO
CCNc1nc(NC(C)C)nc(OC)n1	Acetylcholinesterase (Homo sapiens) (UniProt P22303)	NO
COC(C)(C)C	Acetylcholinesterase (Homo sapiens) (UniProt P22303)	NO
ClC(Br)Br	Acetylcholinesterase (Homo sapiens) (UniProt P22303)	NO
CC(C)NCC(O)c1ccc(N)c(C#N)c1 (configuration not stated)	Acetylcholinesterase (Homo sapiens) (UniProt P22303)	NO
C[N+](=O)[O-]	Acetylcholinesterase (Homo sapiens) (UniProt P22303)	NO
CSc1nc(N=[N+]=[N-])nc(NC(C)C)n1	Acetylcholinesterase (Homo sapiens) (UniProt P22303)	NO
Nc1cnn(-c2ccccc2)c(=O)c1Cl	Acetylcholinesterase (Homo sapiens) (UniProt P22303)	NO
C[C@H]1CCC[C@H](O)CCCCCc2cc(O)cc(O)c2C(=O)O1	Acetylcholinesterase (Homo sapiens) (UniProt P22303)	NO
COc1ncc(F)c2nc(S(=O)(=O)Nc3c(F)cccc3F)nn12	Acetylcholinesterase (Homo sapiens) (UniProt P22303)	NO
[Cl][Sn]([Cl])([Cl])[Cl]	Acetylcholinesterase (Homo sapiens) (UniProt P22303)	NO
COc1cccc2c1cc([N+](=O)[O-])c1c(C(=O)O)cc3c(c12)OCO3	Acetylcholinesterase (Homo sapiens) (UniProt P22303)	NO
Oc1c(Cl)cccc1Cl	Acetylcholinesterase (Homo sapiens) (UniProt P22303)	NO
O=C(Oc1ccc(Br)cc1)N1CCN2CCC1CC2	Acetylcholinesterase (Homo sapiens) (UniProt P22303)	NO
CC(Cl)(Cl)[N+](=O)[O-]	Acetylcholinesterase (Homo sapiens) (UniProt P22303)	NO
CCC(C)(C)c1cc(-n2nc3ccccc3n2)c(O)c(C(C)(C)CC)c1	Acetylcholinesterase (Homo sapiens) (UniProt P22303)	NO
CCCSP(=S)(OCC)Oc1ccc(Cl)cc1Cl (configuration not stated)	Acetylcholinesterase (Homo sapiens) (UniProt P22303)	NO
c1cc2c(c(N3CCNCC3)c1)OCCO2	Acetylcholinesterase (Homo sapiens) (UniProt P22303)	NO
ClCCCN1CCN(c2cccc(Cl)c2)CC1	Acetylcholinesterase (Homo sapiens) (UniProt P22303)	NO
CCOC(=O)CP(=O)(OCC)OCC	Acetylcholinesterase (Homo sapiens) (UniProt P22303)	NO
ClCC(Cl)(Cl)Cl	Acetylcholinesterase (Homo sapiens) (UniProt P22303)	NO
CCN(CC)C(=O)[C@@H]1C=C2c3cccc4[nH]cc(c34)C[C@H]2N(C)C1	Acetylcholinesterase (Homo sapiens) (UniProt P22303)	YES
CNC(=O)Oc1c(C(C)(C)C)cc(C)cc1C(C)(C)C	Acetylcholinesterase (Homo sapiens) (UniProt P22303)	NO
Cc1ncc2n1-c1ccc(Cl)cc1C(c1ccccc1F)=NC2	Acetylcholinesterase (Homo sapiens) (UniProt P22303)	NO
CN1C(=S)CN=C(c2ccccc2)c2cc(Cl)ccc21	Acetylcholinesterase (Homo sapiens) (UniProt P22303)	NO
CNCC(=O)c1ccc(O)c(O)c1	Acetylcholinesterase (Homo sapiens) (UniProt P22303)	NO
O=C(Nc1ccccc1)N(Cc1ccc(Cl)cc1)C1CCCC1	Acetylcholinesterase (Homo sapiens) (UniProt P22303)	NO
Cc1nc(N)nc(N)n1	Acetylcholinesterase (Homo sapiens) (UniProt P22303)	NO
CC(C)CP(=S)(S)CC(C)C	Acetylcholinesterase (Homo sapiens) (UniProt P22303)	NO
CCCCOC(=O)[C@@H](C)Oc1ccc(Oc2ccc(C#N)cc2F)cc1	Acetylcholinesterase (Homo sapiens) (UniProt P22303)	NO
C=C(C)[C@@H]1CC=C(C=O)CC1	Acetylcholinesterase (Homo sapiens) (UniProt P22303)	NO
C#CCN1C(=O)COc2cc(F)c(N3C(=O)C4=C(CCCC4)C3=O)cc21	Acetylcholinesterase (Homo sapiens) (UniProt P22303)	NO
O=C(O)c1cccc(Cl)c1	Acetylcholinesterase (Homo sapiens) (UniProt P22303)	NO
CC(C=O)Cc1ccc2c(c1)OCO2 (configuration not stated)	Acetylcholinesterase (Homo sapiens) (UniProt P22303)	NO
CC(C)[N+](=O)[O-]	Acetylcholinesterase (Homo sapiens) (UniProt P22303)	NO
CCN(CC)c1nc(C)cc(OP(=S)(OC)OC)n1	Acetylcholinesterase (Homo sapiens) (UniProt P22303)	NO
O=C(CCCN1CCC(n2c(=O)[nH]c3ccccc32)CC1)c1ccc(F)cc1	Acetylcholinesterase (Homo sapiens) (UniProt P22303)	NO
CC(N)=S	Acetylcholinesterase (Homo sapiens) (UniProt P22303)	NO
Fc1cc(Br)ccc1CBr	Acetylcholinesterase (Homo sapiens) (UniProt P22303)	NO
C1CCC(C2CCCCC2)CC1	Acetylcholinesterase (Homo sapiens) (UniProt P22303)	NO
CC1CCCCC1NC(=O)Nc1ccccc1 (configuration not stated)	Acetylcholinesterase (Homo sapiens) (UniProt P22303)	NO
CN1CCC(N(Cc2ccccc2)c2ccccc2)CC1	Acetylcholinesterase (Homo sapiens) (UniProt P22303)	NO
BrCCCCCCBr	Acetylcholinesterase (Homo sapiens) (UniProt P22303)	NO
N#CCBr	Acetylcholinesterase (Homo sapiens) (UniProt P22303)	NO
CC1(C)C(=O)NC(=O)NC1=O	Acetylcholinesterase (Homo sapiens) (UniProt P22303)	NO
CC(C)COP(=O)(OCC(C)C)OCC(C)C	Acetylcholinesterase (Homo sapiens) (UniProt P22303)	NO
CCC/C(=N\OCC)C1=C(O)CC(CC(C)SCC)CC1=O (configuration not stated)	Acetylcholinesterase (Homo sapiens) (UniProt P22303)	NO
C[C@]12CC[C@H]3[C@@H](CCC4=CC(=O)CC[C@@]43C)[C@@H]1CC[C@@H]2C(=O)O	Acetylcholinesterase (Homo sapiens) (UniProt P22303)	NO
CCCCc1c(C)nc(NCC)[nH]c1=O	Acetylcholinesterase (Homo sapiens) (UniProt P22303)	NO
O=C(Cc1ccccc1)OCc1ccccc1	Acetylcholinesterase (Homo sapiens) (UniProt P22303)	NO
CCCCCCI	Acetylcholinesterase (Homo sapiens) (UniProt P22303)	NO
